Hi there, I'd appreciate the recorded IC50 for every entry that follows.
- targetEntity: c-Myc template DNA (c-myc quadruplex)
- protocolDetails: Quadruplex binding / stop assay (Taq polymerase arrest, capillary electrophoresis)
- experimentalConditions: read-out: S DATA; Table 1D, stop assay data

Q: Input CN1CCN(CCCNc2c(F)cc3c(=O)c(C(=O)N4CCC(NC(=O)OC(C)(C)C)C4)cn4c3c2Oc2ccccc2-4)CC1 (stereo not drawn) [compound 1575] , output reported IC50.
Ans: > 15 µM

Q: Input CCN(CC)CCCC(C)NC(=O)c1cn2c3c(c(N4CC5CCCNC5C4)ccc3c1=O)Oc1cc3ccccc3cc1-2 (stereo not drawn) , output reported IC50.
Ans: > 15 µM

Q: Input CCOCCCNC(=O)c1cn2c3c(c(N4CCC(N)C4)c(F)cc3c1=O)Oc1cc3ccccc3cc1-2 (stereo not drawn) , output reported IC50.
Ans: > 15 µM

====

Hi there, I'd appreciate the recorded pIC50 for every entry that follows.
- System: HeLa cells
- protocolDetails: MTS cell proliferation and/or cytotoxicity assay
- Type: cell-based, Human
- experimentalConditions: Homo sapiens, HeLa, 72 h, concentration at which 50% of antiproliferative cell response is seen; 3 days incubation; read-out: MTS Data Hella
Keep it numeric: pIC50 is minus log10 of the concentration in mol/L.

Q: Input CN1CCN(CCCNC(=O)c2cn3c4c(c(NCCC5CCCN5C)c(F)cc4c2=O)Oc2cc4c(cc2-3)oc2ccccc24)CC1 (centres unmarked) , output reported pIC50.
Ans: 5.42

Q: Input CN1CCN(CCCNc2c(F)cc3c(=O)c(C(=O)NCCCn4ccnc4)cn4c3c2Oc2cc3c(cc2-4)oc2ccccc23)CC1 , output reported pIC50.
Ans: 5.44

Q: Input CN1CCCC1CCNC(=O)c1cn2c3c(c(NCCN4CCCC4)c(F)cc3c1=O)Oc1cc3c(cc1-2)oc1ccccc13 (centres unmarked) , output reported pIC50.
Ans: 5.49

Q: Input CC1CCCCN1CCCNC(=O)c1cn2c3c(c(N4CCC(N)C4)c(F)cc3c1=O)Oc1cc3ccccc3cc1-2 (centres unmarked) , output reported pIC50.
Ans: 6.48

Q: Input CN(C)CCCCNc1c(F)cc2c(=O)c(C(=O)NCCN3CCCC3)cn3c2c1Oc1cc2c(cc1-3)oc1ccccc12 , output reported pIC50.
Ans: 5.46

====

- targetEntity: c-Myc template DNA (c-myc quadruplex)
- protocolDetails: Quadruplex binding / stop assay (Taq polymerase arrest, capillary electrophoresis)
- experimentalConditions: read-out: S DATA; Table 1D, stop assay data
parameterMeasured: IC50

Q: Input C[C@H](O)CNC(=O)c1cn2c3c(c(N4CCC(N)C4)c(F)cc3c1=O)Oc1cc3ccccc3cc1-2 (stereo partly drawn) [compound 1709] , output reported IC50.
Ans: > 15 µM

Q: Input CN1CCCC1CCNC(=O)c1cn2c3c(c(NCc4ccccc4N4CCCCC4)c(F)cc3c1=O)Oc1cc3ccccc3cc1-2 (stereo not drawn) [compound 1509] , output reported IC50.
Ans: > 15 µM

Q: Input O=C(NCCN1CCCC1)c1cn2c3c(c(SCCc4cnccn4)c(F)cc3c1=O)Oc1cc(Cl)ccc1-2 [compound 1784] , output reported IC50.
Ans: > 15 µM

====

- targetEntity: c-Myc template DNA (c-myc quadruplex)
- protocolDetails: Quadruplex binding / stop assay (Taq polymerase arrest, capillary electrophoresis)
- experimentalConditions: read-out: Stop Data c-Myc μM; concentration at which 50% of the DNA was arrested (arrested:full-length 1:1)
parameterMeasured: log10 IC50 (log10 of the value in µM)
In plain terms, each number is the log10 of measured IC50 in µM.

Q: Input N[C@@H]1CCN(C(=O)c2cn3c4c(c(NCCCN5CCOCC5)c(F)cc4c2=O)Oc2c-3ccc3ccccc23)C1 [compound 83] , output reported log10 IC50.
Ans: 0.40

Q: Input CN1CCN(CCCNC(=O)c2cn3c4c(c(N5CCC(NC(=O)OC(C)(C)C)C5)c(F)cc4c2=O)Oc2cc4c(cc2-3)oc2ccccc24)CC1 (stereo not shown) [compound 383] , output reported log10 IC50.
Ans: -0.12

Q: Input CN1CCCC1CCNc1c(F)cc2c(=O)c(C(N)=O)cn3c2c1Oc1cc2ccccc2cc1-3 (stereo not shown) [compound 298] , output reported log10 IC50.
Ans: 0.24

Q: Input N=C(N)NCCCNC(=O)c1cn2c3c(c(N4CC5CCCNC5C4)c(F)cc3c1=O)Oc1cc3ccccc3cc1-2 (stereo not shown) [compound 327] , output reported log10 IC50.
Ans: 0.00

Q: Input CN(C)c1ccc(NC(=O)c2cn3c4c(c(N5CC[C@@H](N)C5)c(F)cc4c2=O)Oc2c-3ccc3ccccc23)cc1 [compound 82] , output reported log10 IC50.
Ans: 0.40

Q: Input CN1CCN(c2c(F)cc3c(=O)c(C(=O)N4CCC(N)C4)cn4c5cc6c(=O)c7ccccc7c(=O)c6cc5oc2c34)CC1 (stereo not shown) [compound 97] , output reported log10 IC50.
Ans: 0.40

Q: Input Nc1c(F)c(N2CCC(N)C2)c2c3c1c(=O)c(C(=O)NCCN1CCCC1)cn3-c1cc3ccccc3cc1O2 (stereo not shown) [compound 233] , output reported log10 IC50.
Ans: 0.24

Q: Input CN1CCCC1CCNC(=O)c1cn2c3c(c(N4CC[C@@H](N)C4)c(F)cc3c1=O)Oc1cc3ccccc3cc1-2 (stereo partly shown) [compound 564] , output reported log10 IC50.
Ans: -0.60

Q: Input CN1CCCC1CCNc1c(F)cc2c(=O)c(C(=O)NCCCN3CCOCC3)cn3c2c1Oc1c-3ccc2ccccc12 (stereo not shown) [compound 476] , output reported log10 IC50.
Ans: -0.24

Q: Input CN(C)CCCCNC(=O)c1cn2c3c(c(NCCCN4CCOCC4)c(F)c(N)c3c1=O)Oc1cc3ccccc3cc1-2 [compound 220] , output reported log10 IC50.
Ans: 0.24

Q: Input CN1CCCC1CCNC(=O)c1cn2c3c(c(NC4CCCNC4)c(F)cc3c1=O)Oc1cc3ccccc3cc1-2 (stereo not shown) [compound 433] , output reported log10 IC50.
Ans: -0.12

Q: Input CN(C)/C=N/CCCCNC(=O)c1cn2c3c(c(N4CC[C@@H](N)C4)c(F)cc3c1=O)Oc1cc3ccccc3cc1-2 [compound 503] , output reported log10 IC50.
Ans: -0.43

Q: Input O=C(NCCN1CCCC1)c1cn2c3cc4c(cc3oc3c(NCCN5CCCC5)c(F)cc(c1=O)c32)c(=O)c1ccccc14 [compound 577] , output reported log10 IC50.
Ans: -0.74

Q: Input CN1CCCC1CCNC(=O)c1cn2c3c(c(NC4CCS(=O)(=O)C4)c(F)cc3c1=O)Oc1cc3ccccc3cc1-2 (stereo not shown) [compound 338] , output reported log10 IC50.
Ans: 0.00

Q: Input CC1CCCN(CCCNc2c(F)cc3c(=O)c(C(=O)NCCC4CCCN4C)cn4c3c2Oc2cc3ccccc3cc2-4)C1 (stereo not shown) [compound 295] , output reported log10 IC50.
Ans: 0.24

Q: Input CN(C)CCCCNC(=O)c1cn2c3c(c(N4CC[C@@H](NC(=O)CCNCCN5CCOCC5)C4)c(F)cc3c1=O)Oc1cc3c(cc1-2)oc1ccccc13 [compound 405] , output reported log10 IC50.
Ans: -0.12

====

- targetEntity: c-Myc template DNA (c-myc quadruplex)
- protocolDetails: Quadruplex binding / stop assay (Taq polymerase arrest, capillary electrophoresis)
- experimentalConditions: read-out: Stop Data c-Myc μM; concentration at which 50% of the DNA was arrested (arrested:full-length 1:1)
Hi there, I'd appreciate the recorded IC50 for every entry that follows.
Give just the number in µM; leave the unit off.

Q: Input CN1CCCC1CCNC(=O)c1cn2c3c(c(NCCCCN4CCCC4)c(F)cc3c1=O)Oc1cc3ccccc3cc1-2 (stereo not drawn) , output reported IC50.
Ans: 0.75

Q: Input CC(=O)N[C@@H]1CCN(c2c(F)cc3c(=O)c(C(=O)NCCC4CCCN4C)cn4c3c2Oc2cc3c(cc2-4)oc2ccccc23)C1 (stereo partly drawn) , output reported IC50.
Ans: 0.75

Q: Input O=C(c1cn2c3c(c(NCC4CCNCC4)c(F)cc3c1=O)Oc1cc3ccccc3cc1-2)N1CCOCC1 , output reported IC50.
Ans: 2.5

Q: Input CN1CCCC1CCNc1c(F)cc2c(=O)c(C(=O)NCCN3CCCC3)cn3c2c1Oc1cc2c(cc1-3)oc1ccccc12 (stereo not drawn) , output reported IC50.
Ans: 2.5

Q: Input CN(C)CCCCNC(=O)c1cn2c3c(c(N4CC[C@@H](NC(=O)CCNCCCn5ccnc5)C4)c(F)cc3c1=O)Oc1cc3c(cc1-2)oc1ccccc13 , output reported IC50.
Ans: 0.375

Q: Input NC1CCN(c2c(F)cc3c(=O)c(C(=O)NCCN4CCCCC4)cn4c3c2Oc2cc3ccccc3cc2-4)C1 (stereo not drawn) , output reported IC50.
Ans: 1.75

Q: Input CN(C)CCCCNc1c(F)cc2c(=O)c(C(=O)NCCCN3CCOCC3)cn3c2c1Oc1cc2ccccc2cc1-3 , output reported IC50.
Ans: 0.75

Q: Input CN(C)CCCCNC(=O)c1cn2c3c(c(N4CC[C@@H](N)C4)c(F)cc3c1=O)Oc1cc3ccccc3cc1-2 , output reported IC50.
Ans: 0.25

Q: Input CN1CCN(CCCNc2c(F)cc3c(=O)c(C(=O)NCCC4CCCN4C)cn4c3c2Oc2cc3ccccc3cc2-4)CC1 (stereo not drawn) , output reported IC50.
Ans: 0.75

Value source: patent US7507727B2
